- TARGET_ENTITY: recombinant human PKR enzyme (Homo sapiens (Human))
- Sequence (P30613 whole entry): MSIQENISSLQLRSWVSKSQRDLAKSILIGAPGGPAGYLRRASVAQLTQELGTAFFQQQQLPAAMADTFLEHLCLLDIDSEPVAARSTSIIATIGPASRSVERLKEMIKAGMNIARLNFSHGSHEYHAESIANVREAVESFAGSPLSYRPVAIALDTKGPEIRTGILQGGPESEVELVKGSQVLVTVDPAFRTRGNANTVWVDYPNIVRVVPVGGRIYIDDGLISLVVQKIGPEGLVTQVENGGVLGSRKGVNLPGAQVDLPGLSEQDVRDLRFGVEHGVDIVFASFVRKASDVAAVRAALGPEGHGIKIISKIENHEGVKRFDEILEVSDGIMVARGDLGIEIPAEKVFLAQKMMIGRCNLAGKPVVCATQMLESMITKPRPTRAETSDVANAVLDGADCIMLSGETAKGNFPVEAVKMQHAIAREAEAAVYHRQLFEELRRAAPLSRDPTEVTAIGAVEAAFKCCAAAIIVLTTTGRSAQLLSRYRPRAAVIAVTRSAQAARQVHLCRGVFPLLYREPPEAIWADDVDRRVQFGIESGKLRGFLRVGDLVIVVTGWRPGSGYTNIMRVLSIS
- ASSAY_REMARKS: Pyruvate kinase (PKR) activity experiment
- Assay type: biochemical
- STATED_CONDITIONS: activation of recombinant human PKR enzyme
- Description: • 1). A recombinant human PKR enzyme solution was formulated at a concentration of 60 ng/well (a 20 μL reaction system), and 5 μL of the solution was added into each well of a black transparent bottom 384-well plate. • 2). […] • 4). The 384-well plate was placed on a microplate reader to detect the fluorescence value at 540/590 nm, where the value was read every 2 minutes and the detection was conducted continuously for 1 hour. • 5). […]
RECORDED_METRIC: AC50

Use these answered entries as a reference point.
INSERT INTO assay_data (compound, target_entity, recorded_result) VALUES
  ('N#Cc1ccc(S(=O)(=O)N2CC(=C3CN(C(=O)[C@H](CO)c4ccccc4)C3)C2)nc1', 'recombinant human PKR enzyme (Homo sapiens (Human))', '300 to 1000 nM'),
  ('O=C(C(CO)C1CCCCC1)N1CC(=C2CN(S(=O)(=O)c3ccccn3)C2)C1 (stereo not drawn)', 'recombinant human PKR enzyme (Homo sapiens (Human))', '101 to 300 nM'),
  ('O=C(C(CO)c1ccc(Cl)cc1)N1CC(=C2CN(S(=O)(=O)c3ccccn3)C2)C1 (stereo not drawn)', 'recombinant human PKR enzyme (Homo sapiens (Human))', '101 to 300 nM');

Give the measured AC50 for O=C([C@H](CO)c1ccc(F)cc1)N1CC(=C2CN(S(=O)(=O)c3ccccn3)C2)C1 < 100 nM

Give the measured AC50 for O=C([C@H](CO)c1ccccc1)N1CC(=C2CN(S(=O)(=O)c3ccc(F)cc3)C2)C1 101 to 300 nM

Give the measured AC50 for Cc1nc2ccc(S(=O)(=O)N3CC(=C4CN(C(=O)[C@H](CO)c5ccccc5)C4)C3)cc2s1 < 100 nM

Give the measured AC50 for O=C(C(CO)c1ccc(C(F)F)cc1)N1CC(=C2CN(S(=O)(=O)c3ccccn3)C2)C1 (stereo not drawn) < 100 nM

Give the measured AC50 for COc1ccc(S(=O)(=O)N2CC(=C3CN(C(=O)[C@H](CO)c4ccc(F)cc4F)C3)C2)nc1 < 100 nM

Give the measured AC50 for COc1ccc(S(=O)(=O)N2CC(=C3CN(C(=O)[C@@H](CO)c4ccc(F)cc4F)C3)C2)nc1 300 to 1000 nM

Give the measured AC50 for O=C([C@H](CO)c1ccc(F)cc1)N1CC(=C2CN(S(=O)(=O)c3ccc4c(c3)OCCO4)C2)C1 < 100 nM
